Values from the NIST ThermoML archive (doi:10.1021/je901020a)

Consider the following molecules; for each one, report its mass density.
Conditions: 313.15 K; 101 kPa; Liquid
Answers are plain numbers, in kg/m3.

[[record]]
molecule = "C1CCCCCCC1 [cyclooctane]"
metric = "mass density"
value_observed = 819.2

[[record]]
molecule = "Cc1cc(C)cc(C)c1 [1,3,5-trimethylbenzene]"
metric = "mass density"
value_observed = 848.8

[[record]]
molecule = "Cc1ccccc1C [1,2-dimethylbenzene]"
metric = "mass density"
value_observed = 862.9

[[record]]
molecule = "Cc1ccc(C)cc1 [1,4-dimethylbenzene]"
metric = "mass density"
value_observed = 843.5

[[record]]
molecule = "Cc1cccc(C)c1 [1,3-dimethylbenzene]"
metric = "mass density"
value_observed = 846.9

[[record]]
molecule = "C1CCCC1 [cyclopentane]"
metric = "mass density"
value_observed = 725


Please find the next molecule below.
Requested field: mass density. Item: CC1CCCCC1 [methylcyclohexane]
751.9
